Quick reference for relative integration efficiency (log2) among some variants
B1: library; a variant is named by its letters at N, in order (parent)
chain: AATGTTGTTGATGCAACCATAAAGTGATATTTAATAATTATTTATAATCAGCAACTTAACCACAAAACAACCATATATTGATATNTCACAAAACAACCATAANTTGATATTTTTGTGAATCGAGTATTTCAGCAAAACTACTGCAGTAAGAA

variants of: B1; assay: relative integration efficiency (T-RL orientation) vs wild-type transposon end (log2 (normalized fold change)); transposon end mutated: left end; higher = more efficient transposition; conditions: with VchCAST RNA-guided transposition machinery (E. coli BL21(DE3) host, lacZ target)

| variant_code | relative integration efficiency (log2) |
| --- | --- |
| CG A27T A81T A107T | -3.03 |
| CG A23C | -0.467 |
| CG C18A A19C T20G A21C | -3.18 |
| CG T12A G13A T31C T32A A77C T86G | -0.573 |
| CG A1T A2T T3A G4C | 0.164 |
| TA A23G G24T A33T A70C T76A T86G A96C T110A T113A | 0.0613 |
| CG T41A A44G A46G T48G A50G C52A A53T C55A T56C T57A A59T C60T | -4.27 |
| CG T108G | -0.684 |
| CA A23G G24T A33T A102T T111C T113C | -0.967 |
| CG T108G A109C T110G T111G | -1.63 |
| CG T112C | -0.258 |
| CG A46T A47T T48A C49G | 0.00752 |
| CG A73C T74G A75C T76G | -2.23 |
| CG A40G T42G T43A A44G T45C A46G A47G T48A C49T G51A | -1.29 |
| CG T20A T74A T100A | -1.12 |
| CG A90C | -0.278 |
| CG A118C | -0.0886 |
| CG G4C T5A | 0.0402 |
| CG A36C | -0.216 |
| CG A33C A34C T35G A36C | -0.077 |
| CG A83C T84G | -0.94 |
| CG T76G | -0.903 |

Numbers sourced from the supplement of paper PMC10201428.
